melting point values, listed per item

compound=Nc1cccc(OCCCN2C(=O)c3ccccc3C2=O)c1 endpoint="melting point" recorded_value="157 to 162 °C"
compound="CC(Cl)=CCC1CCC2C(C=CC3=CCCc4c3n2c2ccncc42)C1 (stereo not given)" endpoint="melting point" recorded_value="130 to 132 °C"
compound=CCCc1nc2c(N)nc3cc(OCc4cccc(Cl)c4)ccc3c2n1CC(C)C endpoint="melting point" recorded_value="182 to 183 °C"
compound="CC(C)(C)OC(=O)NC(C(=O)O)c1ccc(O)cc1 (stereo not given)" endpoint="melting point" recorded_value="112 to 114 °C"
compound=S=C1CSc2cccc(Cl)c2N1 endpoint="melting point" recorded_value="138 to 140 °C"

Hello, please tell me recorded melting point for this one: CNCC1(CF)CCN(c2c(F)cc3c(=O)c(C(=O)O)cn(C4CC4)c3c2OC)C1 (stereo not given)
208 to 210 °C

Tell me measured melting point for N#CC1=C(Nc2ccc(Cl)cc2[N+](=O)[O-])CSC1 please.
154 to 155 °C

Tell me measured melting point for COC(=O)/C=C/c1ccc(OCCCC(=O)OC)cc1O please.
108 to 112 °C

Give reported melting point value for COc1cc2c(cc1OS(N)(=O)=O)CC(C)(C)N(C(=O)c1cc(OC)c(OC)c(OC)c1)C2
172 to 176 °C
